test system: IL-2 production, Jurkat cells; assay: Inhibition of IL-2 production in PHA-activated Jurkat cells (ELISA); format: cell-based; settings: Homo sapiens, 1% FBS, given as activity class
pIC50: −log10 of the molar value.
pIC50 reference

Recorded results for 3 molecules are shown here.
[[record]]
mol = "Cc1ccc(OCc2ccccn2)cc1-c1ccc(NC(=O)c2c(F)cccc2F)cc1"
measured_parameter = "pIC50"
test_value = "> 7.30"

[[record]]
mol = "Cc1cnc(Oc2ccc(Cl)c(-c3ccc(NC(=O)c4c(F)cccc4F)cc3)c2)s1"
measured_parameter = "pIC50"
test_value = "7.00 to 7.30"

[[record]]
mol = "Cc1ccc(C#Cc2cccnc2)cc1-c1cnc(NC(=O)c2c(F)cccc2F)cn1"
measured_parameter = "pIC50"
test_value = "> 7.30"


Shifting focus to the molecule that follows.
Form field - read-out: pIC50; system: IL-2 production, Jurkat cells; submitted item: Cc1ccc(Oc2cccnc2)cc1-c1ccc(NC(=O)c2c(F)cccc2F)cc1
> 7.30

---

target: CRACM1/STIM1-CHOK1 (Homo sapiens, UniProt Q96D31); construct: Full length human Stim1, CracM1, CracM2 and CracM3 cDNA; Stim1 induced with doxycycline; assay: Patch clamp inhibition of ICRAC current in CRACM1/STIM1-CHOK1 cells; format: cell-based; conditions: 500 nM; given as activity class
Sequence (Q96D31 whole entry): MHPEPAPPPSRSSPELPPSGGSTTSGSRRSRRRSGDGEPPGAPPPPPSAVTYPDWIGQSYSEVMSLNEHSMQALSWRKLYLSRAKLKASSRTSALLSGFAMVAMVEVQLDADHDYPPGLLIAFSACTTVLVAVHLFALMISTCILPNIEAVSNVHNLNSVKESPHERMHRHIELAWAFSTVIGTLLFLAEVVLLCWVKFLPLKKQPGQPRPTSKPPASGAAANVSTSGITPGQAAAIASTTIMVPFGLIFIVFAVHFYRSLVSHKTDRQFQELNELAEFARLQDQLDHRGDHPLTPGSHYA
Counter-ions that a name gives are not always drawn.
inhibition at 0.5 µM reference

[[record]]
compound = "Cc1ccc(-c2nc(-c3cccnc3)cs2)cc1-c1cnc(NC(=O)c2c(F)cccc2F)cn1 [Compound 20]"
measured_parameter = "inhibition at 0.5 µM"
test_value = "70 to 100%"


Form field - read-out: inhibition at 0.5 µM; system: CRACM1/STIM1-CHOK1 (Homo sapiens, UniProt Q96D31); submitted item: O=C(Nc1ccc(-c2cc(Oc3ccccn3)ccc2Cl)cn1)c1c(F)cccc1F [Compound 5]
70 to 100%

Form field - read-out: inhibition at 0.5 µM; system: CRACM1/STIM1-CHOK1 (Homo sapiens, UniProt Q96D31); submitted item: Cc1ccc(Oc2cccnc2)cc1-c1cnc(NC(=O)c2c(F)cccc2F)cn1 [Compound 8]
70 to 100%

Form field - read-out: inhibition at 0.5 µM; system: CRACM1/STIM1-CHOK1 (Homo sapiens, UniProt Q96D31); submitted item: O=C(Nc1ccc(-c2cc(Oc3ccccn3)ccc2Cl)cc1)c1c(F)cccc1F [Compound 4]
70 to 100%

Form field - read-out: inhibition at 0.5 µM; system: CRACM1/STIM1-CHOK1 (Homo sapiens, UniProt Q96D31); submitted item: Cc1ccc(-c2nc(-c3cccnc3)cs2)cc1-c1ccc(NC(=O)c2c(F)cccc2F)cc1 [Compound 19, hydrochloride]
< 50%

Form field - read-out: inhibition at 0.5 µM; system: CRACM1/STIM1-CHOK1 (Homo sapiens, UniProt Q96D31); submitted item: Cc1ccc(C#Cc2cccnc2)cc1-c1cnc(NC(=O)c2c(F)cccc2F)cn1 [Compound 1]
70 to 100%

Form field - read-out: inhibition at 0.5 µM; system: CRACM1/STIM1-CHOK1 (Homo sapiens, UniProt Q96D31); submitted item: Cc1ccc(Oc2cccnc2)cc1-c1ccc(NC(=O)c2c(F)cccc2F)cc1 [Compound 6]
70 to 100%

Form field - read-out: inhibition at 0.5 µM; system: CRACM1/STIM1-CHOK1 (Homo sapiens, UniProt Q96D31); submitted item: Cc1ccc(CCc2cccnc2)cc1-c1cnc(NC(=O)c2c(F)cccc2F)cn1 [Compound 16]
50 to 70%

Form field - read-out: inhibition at 0.5 µM; system: CRACM1/STIM1-CHOK1 (Homo sapiens, UniProt Q96D31); submitted item: COc1ccc(-c2ccc(C)c(-c3ccc(NC(=O)c4c(F)cccc4F)cc3)c2)cn1 [Compound 22]
70 to 100%

Form field - read-out: inhibition at 0.5 µM; system: CRACM1/STIM1-CHOK1 (Homo sapiens, UniProt Q96D31); submitted item: Cc1ccc(Nc2ccccn2)cc1-c1ccc(NC(=O)c2c(F)cccc2F)cc1 [Compound 3]
50 to 70%

Form field - read-out: inhibition at 0.5 µM; system: CRACM1/STIM1-CHOK1 (Homo sapiens, UniProt Q96D31); submitted item: Cc1ccc(Oc2ccccn2)cc1-c1ccc(NC(=O)c2c(F)cccc2F)nc1 [Compound 9]
70 to 100%

Form field - read-out: inhibition at 0.5 µM; system: CRACM1/STIM1-CHOK1 (Homo sapiens, UniProt Q96D31); submitted item: Cc1ccc(Oc2cccnc2)cc1-c1ccc(NC(=O)c2c(F)cccc2F)nc1 [Compound 7]
70 to 100%

Form field - read-out: inhibition at 0.5 µM; system: CRACM1/STIM1-CHOK1 (Homo sapiens, UniProt Q96D31); submitted item: O=C(Nc1ccc(-c2cc(Oc3nccs3)ccc2Cl)cc1)c1c(F)cccc1F [Compound 11]
70 to 100%

---

target: CRACM1/STIM1-CHOK1 (Homo sapiens); construct: Full length human Stim1, CracM1, CracM2 and CracM3 cDNA; Stim1 induced with doxycycline; test: Patch clamp inhibition of ICRAC current in CRACM1/STIM1-CHOK1 cells; type: cell-based; conditions: 500 nM; given as activity class
inhibition at 0.5 µM reference

Recorded results for 4 compounds are shown here.
[[record]]
mol = "Cc1ccc(Cn2ccnc2)cc1-c1ccc(NC(=O)c2c(F)cccc2F)cc1"
test_value = "70 to 100%"

[[record]]
mol = "Cc1ccc(OCc2ccccn2)cc1-c1ccc(NC(=O)c2c(F)cccc2F)cc1"
test_value = "70 to 100%"

[[record]]
mol = "Cc1cnc(Oc2ccc(Cl)c(-c3ccc(NC(=O)c4c(F)cccc4F)cc3)c2)s1"
test_value = "70 to 100%"

[[record]]
mol = "Cn1cncc1-c1cnc(-c2ccc(Cl)c(-c3ccc(NC(=O)c4c(F)cccc4F)nc3)c2)s1"
test_value = "50 to 70%"


Look up inhibition at 0.5 µM for this compound: Cc1ccc(CCc2cccnc2)cc1-c1ccc(NC(=O)c2c(F)cccc2F)cc1
70 to 100%

---

tested on: IL-2 production, Jurkat cells; test: Inhibition of IL-2 production in PHA-activated Jurkat cells (ELISA); format: cell-based; settings: Homo sapiens, 1% FBS, given as activity class
pIC50: −log10 of the molar value. Structures can show the parent of a compound that is named as a salt.
Measured Parameter: pIC50

Recorded results for 5 compounds are shown here.
[[record]]
compound = "Cc1ccc(-c2nc(-c3cccnc3)cs2)cc1-c1ccc(NC(=O)c2c(F)cccc2F)cc1 [Compound 19, hydrochloride]"
test_value = "> 7.30"

[[record]]
compound = "Cc1ccc(CCc2ccccn2)cc1-c1ccc(NC(=O)c2c(F)cccc2F)cc1"
test_value = "7.00 to 7.30"

[[record]]
compound = "Cc1ccc(Cn2ccnc2)cc1-c1ccc(NC(=O)c2c(F)cccc2F)cc1"
test_value = "> 7.30"

[[record]]
compound = "Cc1ccc(C#Cc2cccnc2)cc1-c1ccc(NC(=O)c2c(F)cccc2F)cc1"
test_value = "> 7.30"

[[record]]
compound = "Cc1ccc(Oc2cccnc2)cc1-c1ccc(NC(=O)c2c(F)cccc2F)nc1"
test_value = "> 7.30"


Form field - read-out: pIC50; system: IL-2 production, Jurkat cells; submitted item: Cc1ccc(CCc2cccnc2)cc1-c1cnc(NC(=O)c2c(F)cccc2F)cn1
> 7.30

Form field - read-out: pIC50; system: IL-2 production, Jurkat cells; submitted item: Cc1ccc(-c2ncc(-c3cnco3)s2)cc1-c1ccc(NC(=O)c2c(F)cccc2F)cc1
7.00 to 7.30

Form field - read-out: pIC50; system: IL-2 production, Jurkat cells; submitted item: Cc1ccc(CCc2cccnc2)cc1-c1ccc(NC(=O)c2c(F)cccc2F)cc1
> 7.30

---

inhibition at 0.5 µM reference
biological target: CRACM1/STIM1-CHOK1 (Homo sapiens, UniProt Q96D31); construct: Full length human Stim1, CracM1, CracM2 and CracM3 cDNA; Stim1 induced with doxycycline; test: Patch clamp inhibition of ICRAC current in CRACM1/STIM1-CHOK1 cells; assay type: cell-based; details: 500 nM; given as activity class

Recorded results for 3 compounds are shown here.
[[record]]
compound = "O=C(Nc1ccc(-c2cc(Oc3nccs3)ccc2Cl)cn1)c1c(F)cccc1F [Compound 12]"
system_name = "CRACM1/STIM1-CHOK1 (Homo sapiens, UniProt Q96D31)"
measured_parameter = "inhibition at 0.5 µM"
test_value = "70 to 100%"

[[record]]
compound = "Cc1ccc(C#Cc2cccnc2)cc1-c1ccc(NC(=O)c2c(F)cccc2F)cc1 [Compound 2]"
system_name = "CRACM1/STIM1-CHOK1 (Homo sapiens, UniProt Q96D31)"
measured_parameter = "inhibition at 0.5 µM"
test_value = "70 to 100%"

[[record]]
compound = "Cc1ccc(-c2ncc(-c3cnco3)s2)cc1-c1ccc(NC(=O)c2c(F)cccc2F)cc1 [Compound 21]"
system_name = "CRACM1/STIM1-CHOK1 (Homo sapiens, UniProt Q96D31)"
measured_parameter = "inhibition at 0.5 µM"
test_value = "< 50%"


Look up inhibition at 0.5 µM for this compound: Cc1ccc(CCc2ccccn2)cc1-c1ccc(NC(=O)c2c(F)cccc2F)cc1 [Compound 17]
70 to 100%
